Cited source for all entries: ChEMBL document CHEMBL1961873

system: Mast/stem cell growth factor receptor Kit (Homo sapiens), P10721 [D816V]; conditions: at 1 µM
Sequence (P10721 whole entry D816V): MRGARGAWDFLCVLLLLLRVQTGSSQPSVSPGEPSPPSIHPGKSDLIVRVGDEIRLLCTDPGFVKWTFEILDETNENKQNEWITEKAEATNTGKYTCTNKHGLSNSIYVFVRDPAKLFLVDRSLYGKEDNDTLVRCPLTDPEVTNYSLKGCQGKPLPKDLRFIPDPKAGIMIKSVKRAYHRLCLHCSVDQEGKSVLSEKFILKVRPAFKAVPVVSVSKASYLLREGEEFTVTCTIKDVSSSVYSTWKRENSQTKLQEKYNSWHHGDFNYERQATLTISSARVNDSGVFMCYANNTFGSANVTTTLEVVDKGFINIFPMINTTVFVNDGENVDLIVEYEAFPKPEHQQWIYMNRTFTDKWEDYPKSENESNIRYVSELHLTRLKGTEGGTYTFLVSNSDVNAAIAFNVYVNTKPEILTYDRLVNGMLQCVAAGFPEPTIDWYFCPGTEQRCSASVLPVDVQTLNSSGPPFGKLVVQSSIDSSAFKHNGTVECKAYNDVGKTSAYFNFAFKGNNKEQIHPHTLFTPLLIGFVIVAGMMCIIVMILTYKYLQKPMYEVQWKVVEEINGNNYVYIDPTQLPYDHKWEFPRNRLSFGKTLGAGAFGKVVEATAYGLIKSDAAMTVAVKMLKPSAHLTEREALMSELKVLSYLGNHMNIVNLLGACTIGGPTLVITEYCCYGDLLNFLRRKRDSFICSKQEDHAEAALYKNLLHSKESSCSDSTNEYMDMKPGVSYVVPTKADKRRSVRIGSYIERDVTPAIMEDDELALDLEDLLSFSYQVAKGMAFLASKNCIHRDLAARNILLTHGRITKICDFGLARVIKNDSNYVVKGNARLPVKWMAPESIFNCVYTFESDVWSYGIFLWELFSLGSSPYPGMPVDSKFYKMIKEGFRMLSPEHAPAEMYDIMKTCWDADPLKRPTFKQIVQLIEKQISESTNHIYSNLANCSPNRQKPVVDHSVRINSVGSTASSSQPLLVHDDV
Entries and their inhibition
Form entry: value (%) — number only.

Reference set, count: 8
sample smiles	inhibition (%)
NS(=O)(=O)c1ccc(N/N=C2\C(=O)Nc3ccc4ncccc4c32)cc1	23.6
O=S(=O)(CCNCc1ccc(-c2ccc3ncnc(Nc4ccc(OCc5cccc(F)c5)c(Cl)c4)c3c2)o1)c1ccccc1	6.21
CN1CCC(n2cnc(-c3ccc(F)cc3)c2-c2ccnc(N)n2)CC1	7.78
Clc1ccc(-c2nn3ncccc3c2-c2ccnc(Nc3ccccc3)n2)cc1	-1.04
COC(=O)Nc1nc2ccc(Oc3ccc(NC(=O)Nc4cccc(Cl)c4)cc3)cc2[nH]1	-1.6
CCCN(CCS(C)(=O)=O)Cc1ccc(-c2ccc3ncnc(Nc4ccc(OCc5cccc(F)c5)c(Cl)c4)c3c2)o1	4.14
COC(=O)Nc1nc2ccc(S(=O)(=O)c3ccc(NC(=O)Nc4cc(C(F)(F)F)ccc4F)cc3)cc2[nH]1	5.14
CC(C)COC(=O)c1ccc2c(c1)/C(=C/Nc1ccc(S(N)(=O)=O)cc1)C(=O)N2	35.2

Measured inhibition for this entry `N#Cc1c(NC(=O)c2ccc(F)cc2)sc2c1CCCC2` on Mast/stem cell growth factor receptor Kit (Homo sapiens), P10721 [D816V]: 2.78

Measured inhibition for this entry `CCn1c(-c2nonc2N)nc2ccccc21` on Mast/stem cell growth factor receptor Kit (Homo sapiens), P10721 [D816V]: -1.08

Measured inhibition for this entry `CN1CCC(n2cnc(-c3ccc(F)cc3)c2-c2ccnc(Nc3ccccc3)n2)CC1` on Mast/stem cell growth factor receptor Kit (Homo sapiens), P10721 [D816V]: 2.39

Measured inhibition for this entry `Nc1ncc(-c2cccc(S(N)(=O)=O)c2)c2scc(-c3ccc(F)c(Cl)c3)c12` on Mast/stem cell growth factor receptor Kit (Homo sapiens), P10721 [D816V]: 5.44
